biological target: MC-3R (Homo sapiens); experiment: cAMP accumulation via β-galactosidase (β-Gal) reporter system (cAMP Hunter GPCR assay); assay type: cell-based; conditions: ratio of EC-50 values, MC-3R versus MC-4R
Sequence (P41968 whole entry): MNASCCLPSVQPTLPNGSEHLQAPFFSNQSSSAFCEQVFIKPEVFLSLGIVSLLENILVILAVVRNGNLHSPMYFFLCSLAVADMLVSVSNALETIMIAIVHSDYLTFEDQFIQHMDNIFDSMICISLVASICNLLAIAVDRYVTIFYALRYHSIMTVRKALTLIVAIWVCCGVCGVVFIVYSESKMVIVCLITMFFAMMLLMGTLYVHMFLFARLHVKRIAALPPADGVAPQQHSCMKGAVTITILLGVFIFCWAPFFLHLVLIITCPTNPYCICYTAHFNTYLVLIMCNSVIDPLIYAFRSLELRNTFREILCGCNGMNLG
Where a SMILES comes first, the peptide text is derived from it. Bridges are numbered along the chain shown (N, C = ends). [ ]: non-standard residue; d: D form. Pen = CC(C)(S)[C@H](N)C(=O)O; hCys = N[C@@H](CCS)C(=O)O
The entries below come with measured Selectivity Ratios MC4R/MC3R values attached.
Answer with a bare number; do not write a unit.

compound="CC(=O)N[C@@H](CCCNC(=N)N)C(=O)N[C@H]1CCC(=O)NC[C@@H](C(N)=O)NC(=O)[C@H](Cc2c[nH]c3ccccc23)NC(=O)[C@H](CCCNC(=N)N)NC(=O)[C@@H](Cc2ccccc2)NC(=O)[C@H](CCC(N)=O)NC1=O [Compound 001576C, Ac-Arg-(Glu-Gln-D-Phe-Arg-Trp-Dpr)-NH2]" measurement_kind="Selectivity Ratios MC4R/MC3R" measured_number=1.75

Okay, now this compound:
Please look up its Selectivity Ratios MC4R/MC3R: CC(=O)N[C@@H](CCCNC(=N)N)C(=O)N[C@H]1CCSSC(C)(C)[C@@H](C(N)=O)NC(=O)[C@H](Cc2c[nH]c3ccccc23)NC(=O)[C@H](CCCNC(=N)N)NC(=O)[C@@H](Cc2ccccc2)NC(=O)[C@H](CCC(N)=O)NC1=O [Compound 001555C, Ac-Arg-(hCys-Gln-D-Phe-Arg-Trp-Pen)-NH2] (Ac-R[hCys]Q[dF]RW[Pen]-NH2; disulfide 2-7)
2.68
